Every entry's value here was drawn from ChEMBL document CHEMBL1136866.

# reported IC50; entries follow
Experiment: Antiplatelet activity in human citreated platelet rich plasma assessed as inhibition of adenosine diphosphate-induced platelet aggregation preincubated before adenosine diphosphate challenge
Type: functional
The response must be a number in µg/mL with no trailing unit.

// known answers, use as guide
Would you kindly share the measured IC50 for `Cc1c(C(=O)N/N=C/c2ccccc2)nnn1Nc1ccccc1` ?
19

Would you kindly share the measured IC50 for `Cc1c(C(=O)N/N=C/c2ccco2)nnn1Nc1ccccc1` ?
338

Would you kindly share the measured IC50 for `Cc1c(C(=O)N/N=C/c2ccc([N+](=O)[O-])o2)nnn1Nc1ccccc1` ?
11.6

Would you kindly share the measured IC50 for `Cc1c(C(=O)N/N=C/c2ccco2)nnn1Nc1ccc(Cl)cc1` ?
261

Would you kindly share the measured IC50 for CC(=O)Oc1ccccc1C(=O)O [ASPIRIN] ?
21.5

Here is another compound to look at.
Would you kindly share the measured IC50 for `Cc1c(C(=O)N/N=C/c2ccccc2)nnn1Nc1ccc(Cl)cc1` ?
180
